B1: INTS3 (parent)
chain: DLNSKGKKREFRFHPIKETVVEEP

Variants of: B1
Experiment: protein stability index of a GFP-peptide fusion (GPS, HEK-293T) (PSI 1-6); higher = more stable;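 further: lentivirally expressed fusions sorted by FACS into six bins by GFP to DsRed ratio, PSI derived from sequencing read proportions per bin multiplied by bin number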
Conditions: c terminus: a fixed tail appended
Reported Metric: protein stability index
Please give the numeric answer without any surrounding text.

Some solved cases for reference:
DLNSKGPKREFRFHPIKETVVEEP; 1.94
DLNSKGKKREFRFHPIKETVTEEP; 2.62
DLNSKGKKREFRFHPIKETTVEEP; 2.09

For the next question, use this variant.
So what does the record say about protein stability index for DLNSKGKKREFRFHMIKETVVEEP ?
2.29
